Values from patent US20230312646A1

- ASSAY SYSTEM: Escherichia coli SC (^EcSC) (Escherichia coli, UniProt P0A988)
- Construct: His tag (inferred from the pET15b vector and Ni-NTA purification) (N); made in house; host or cells: E. coli
- Sequence (P0A988 whole entry): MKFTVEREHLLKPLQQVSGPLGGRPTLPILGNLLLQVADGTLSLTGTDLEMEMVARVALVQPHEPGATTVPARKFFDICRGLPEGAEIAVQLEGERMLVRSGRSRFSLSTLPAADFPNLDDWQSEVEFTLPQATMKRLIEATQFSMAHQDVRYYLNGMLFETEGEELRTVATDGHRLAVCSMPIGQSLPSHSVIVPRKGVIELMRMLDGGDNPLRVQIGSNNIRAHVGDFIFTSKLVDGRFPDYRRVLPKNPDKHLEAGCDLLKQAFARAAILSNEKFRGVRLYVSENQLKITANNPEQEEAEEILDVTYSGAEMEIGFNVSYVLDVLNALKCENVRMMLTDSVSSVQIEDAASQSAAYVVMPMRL
- PROCEDURE SUMMARY: biochemical
- Format: binding
- CONDITIONS USED: ITC at 298.15 K (25° C.)
Numbered stars: 1 amine (or outer) side, 2 acyl side, 3 side chain; on linkers, the order of the positions; unused ones are H or OH. Square brackets hold non-standard residues; d marks the D form. Peptide text beside a SMILES is read from it. * marks the point of attachment. X5 = O=C([C@@H]1CC(O)CN1[*:1])[*:2]; Cha = N[C@@H](CC1CCCCC1)C(=O)O; NHPhenethyl = c1ccc(CCN*)cc1; X8 = NC[C@H](Cc1ccccc1)N*; Sar = CNCC(=O)O

COMPOUND: CC(=O)N[C@@H](CCC(N)=O)C(=O)N[C@@H](CC1CCCCC1)C(=O)N[C@@H](CC(=O)O)C(=O)N[C@@H](CC(C)C)C(=O)N(C)CC(=O)N[C@@H](CC(C)C)C(=O)O [P30] (Ac-Q[Cha]DL[Sar]L-OH)
ΔG (kcal/mol): -8.5 (± 0.2) kcal/mol
--
COMPOUND: CC(=O)N[C@@H](CCC(N)=O)C(=O)N[C@@H](CC1CCCCC1)C(=O)N[C@@H](CC(=O)O)C(=O)N[C@@H](CC(C)C)C(=O)N[C@@H](Cc1ccccc1)C(N)=O [P26] (Ac-Q[Cha]DLF-NH2)
ΔG (kcal/mol): -9.0 (± 0.1) kcal/mol
--
COMPOUND: CC(=O)N[C@@H](CCC(N)=O)C(=O)N[C@@H](CC1CCCCC1)C(=O)N[C@@H](CC(=O)O)C(=O)N[C@@H](CC(C)C)C(=O)N1CC(O)C[C@H]1C(=O)N[C@@H](CC(C)C)C(=O)O (stereo partly drawn) [P33] (Ac-Q[Cha]DL[X5]L-OH)
ΔG (kcal/mol): -8.8 (± 0.2) kcal/mol
--
COMPOUND: CC(=O)N[C@@H](CCC(N)=O)C(=O)N[C@@H](CC1CCCCC1)C(=O)N[C@@H](CC(=O)O)C(=O)N[C@@H](CC(C)C)C(=O)NCCc1ccccc1 [P23] (Ac-Q[Cha]DL-NHPhenethyl)
ΔG (kcal/mol): -8.2 (± 0.05) kcal/mol
--
COMPOUND: CC(=O)N[C@@H](CCC(N)=O)C(=O)N[C@@H](CC1CCCCC1)C(=O)N[C@@H](CC(=O)O)C(=O)N[C@@H](CC(C)C)C(=O)N[C@H](CN)Cc1ccccc1 [P25] (Ac-Q[Cha]DL-X8)
ΔG (kcal/mol): -8.27 (± 0.03) kcal/mol
